Test: ACEA_AR_antagonist_AUC_viability: ACEA Biosciences xCELLigence Real-Time Cell Analysis on Androgen Receptor Antagonism for Viability (AID 2283776);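 note: 22Rv1 human prostate cancer cells growing on impedance electrode plates; area under impedance growth curve at 80 h after dosing as viability; hits lower the growth signal relative to DMSO meaning cytotoxicity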
Experimental: ACEA_AR_antagonist is a cell-based, single-readout assay that uses 22Rv1, a human prostate cancer cell line, with measurements taken at 80 hours after chemical dosing in a 384-well plate, although TO5 and TO6 (mc0.srcf) used a 96-well plate. Differences in plate size can be ignored given data normalization.ACEA_AR_80hr is one of two assay component(s) measured or calculated from the ACEA_ER assay. […]
Records with an inconclusive call do not appear. Calls of active or inactive are those of the source. Rule for the calls: active = hit-call score of the fitted dose curve at least 0.9, where 1 is the maximum; inconclusive = response in the unintended direction; inactive = score below 0.9.
Returns: one label drawn from Y (active), N (inactive)

Known results for compounds:
>  <Compound>
O=C1C=CC(=O)N1c1ccccc1

>  <Label value>
N

$$$$
>  <Compound>
CCCCC(CC)COC(=O)c1ccc(N(C)C)cc1 (configuration not stated)

>  <Label value>
N

$$$$
>  <Compound>
C[C@]12CC[C@H]3C(=CCc4cc(O)ccc43)[C@@H]1CCC2=O

>  <Label value>
N

$$$$
>  <Compound>
CCCCOC(=O)C(C)O (configuration not stated)

>  <Label value>
N

$$$$
>  <Compound>
N#Cc1ccccc1O

>  <Label value>
N

$$$$

Kindly provide the recorded test outcome for the following compound: CCCCCCCCCc1ccc(OCCO)cc1
Y

I'd appreciate the recorded outcome for CCOC(=O)C1CC(=O)C(=C(O)C2CC2)C(=O)C1 (configuration not stated) from this test.
N

Fill in: this test's call for CCN=c1cc2oc3cc(NCC)c(C)cc3c(-c3ccccc3C(=O)OCC)c-2cc1C is ___
Y

// outcome(item) with item = CCCCCCCCCCCCC[N+](C)(C)Cc1ccccc1
Y

What is the recorded call for this compound in the test? Cc1ccc(O)c(-n2nc3ccccc3n2)c1
N

Per the assay record, what outcome was assigned to CCCCCCCC/C=C\CCCCCCCC(=O)OCC(O)CO (configuration not stated) ?
N

In this assay, the call recorded for CC(C)(C)c1cc(CCC(=O)OCC(COC(=O)CCc2cc(C(C)(C)C)c(O)c(C(C)(C)C)c2)(COC(=O)CCc2cc(C(C)(C)C)c(O)c(C(C)(C)C)c2)COC(=O)CCc2cc(C(C)(C)C)c(O)c(C(C)(C)C)c2)cc(C(C)(C)C)c1O was what?
N

From: PubChem BioAssay (EPA / NIEHS)
